Assay: total protein half-life in vivo (active degradation + dilution); higher = more stable protein
Conditions: E. coli NCM3722 delta-hslV; growth: N-lim chemostat; doubling time 6 h
Where total protein half-life in vivo equals or exceeds 4 h, the correct label is TRUE; where it does not, the label is FALSE.

Here are 4 sequences together with their reported answers.
>>> label_class("MNHSLKPWNTFGIDHNAQHIVCAEDEQQLLNAWQYATAEGQPVLILGEGSNVLFLEDYRGTVIINRIKGIEIHDEPDAWYLHVGAGENWHRLVKYTLQEGMPGLENLALIPGCVGSSPIQNIGAYGVELQRVCAYVDSVELATGKQVRLTAKECRFGYRDSIFKHEYQDRFAIVAVGLRLPKEWQPVLTYGDLTRLDPTTVTPQQVFNAVCHMRTTKLPDPKVNGNAGSFFKNPVVSAETAKALLSQFPTAPNYPQADGSVKLAAGWLIDQCQLKGMQIGGAAVHRQQALVLINEDNAKSEDVVQLAHHVRQKVGEKFNVWLEPEVRFIGASGEVSAVETIS")
"FALSE"
>>> label_class("MSEIKDVIVQGLWKNNSALVQLLGLCPLLAVTSTATNALGLGLATTLVLTLTNLTISTLRHWTPAEIRIPIYVMIIASVVSAVQMLINAYAFGLYQSLGIFIPLIVTNCIVVGRAEAFAAKKGPALSALDGFSIGMGATCAMFVLGSLREIIGNGTLFDGADALLGSWAKVLRVEIFHTDSPFLLAMLPPGAFIGLGLMLAGKYLIDERMKKRRAEAAAERALPNGETGNV")
"FALSE"
>>> label_class("MIRFEHVSKAYLGGRQALQGVTFHMQPGEMAFLTGHSGAGKSTLLKLICGIERPSAGKIWFSGHDITRLKNREVPFLRRQIGMIFQDHHLLMDRTVYDNVAIPLIIAGASGDDIRRRVSAALDKVGLLDKAKNFPIQLSGGEQQRVGIARAVVNKPAVLLADEPTGNLDDALSEGILRLFEEFNRVGVTVLMATHDINLISRRSYRMLTLSDGHLHGGVGHE [P0A9R7]")
"TRUE"
>>> label_class("MKQTVYIASPESQQIHVWNLNHEGALTLTQVVDVPGQVQPMVVSPDKRYLYVGVRPEFRVLAYRIAPDDGALTFAAESALPGSPTHISTDHQGQFVFVGSYNAGNVSVTRLEDGLPVGVVDVVEGLDGCHSANISPDNRTLWVPALKQDRICLFTVSDDGHLVAQDPAEVTTVEGAGPRHMVFHPNEQYAYCVNELNSSVDVWELKDPHGNIECVQTLDMMPENFSDTRWAADIHITPDGRHLYACDRTASLITVFSVSEDGSVLSKEGFQPTETQPRGFNVDHSGKYLIAAGQKSHHISVYEIVGEQGLLHEKGRYAVGQGPMWVVVNAH")
"TRUE"

--- query ---
Ask | Given `MEYQLTLNWPDFLERHWQKRPVVLKRGFNNFIDPISPDELAGLAMESEVDSRLVSHQDGKWQVSHGPFESYDHLGETNWSLLVQAVNHWHEPTAALMRPFRELPDWRIDDLMISFSVPGGGVGPHLDQYDVFIIQGTGRRRWRVGEKLQMKQHCPHPDLLQVDPFEAIIDEELEPGDILYIPPGFPHEGYALENAMNYSVGFRAPNTRELISGFADYVLQRELGGNYYSDPDVPPRAHPADVLPQEMDKLREMMLELINQPEHFKQWFGEFISQSRHELDIAPPEPPYQPDEIYDALKQGEVLVRLGGLRVLRIGDDVYANGEKIDSPHRPALDALASNIALTAENFGDALEDPSFLAMLAALVNSGYWFFEG` , state whether its total protein half-life in vivo is at least 4 h.
Reply | TRUE

----------
Test: total protein half-life in vivo (active degradation + dilution); higher = more stable protein
Conditions: wild type E. coli NCM3722; growth: N-lim chemostat; doubling time 6 h
REPORTED METRIC: total protein half-life in vivo (h)
Write the value in h as a bare number.

Sample answers from the record:
>>> quantitative_readout("MANWQSIDELQDIASDLPRFIHALDELSRRLGLNITPLTADHISLRCHQNATAERWRRGFEQCGELLSENMINGRPICLFKLHEPVQVAHWQFSIVELPWPGEKRYPHEGWEHIEIVLPGDPETLNARALALLSDEGLSLPGISVKTSSPKGEHERLPNPTLAVTDGKTTIKFHPWSIEEIVASEQSA")
3.3
>>> quantitative_readout("MNAEKSPVNHNVDHEEIAKFEAVASRWWDLEGEFKPLHRINPLRLGYIAERAGGLFGKKVLDVGCGGGILAESMAREGATVTGLDMGFEPLQVAKLHALESGIQVDYVQETVEEHAAKHAGQYDVVTCMEMLEHVPDPQSVVRACAQLVKPGGDVFFSTLNRNGKSWLMAVVGAEYILRMVPKGTHDVKKFIKPAELLGWVDQTSLKERHITGLHYNPITNTFKLGPGVDVNYMLHTQNK")
3.85

Ask | Quick one: total protein half-life in vivo of `MSDNAQLTGLCDRFRGFYPVVIDVETAGFNAKTDALLEIAAITLKMDEQGWLMPDTTLHFHVEPFVGANLQPEALAFNGIDPNDPDRGAVSEYEALHEIFKVVRKGIKASGCNRAIMVAHNANFDHSFMMAAAERASLKRNPFHPFATFDTAALAGLALGQTVLSKACQTAGMDFDSTQAHSALYDTERTAVLFCEIVNRWKRLGGWPLSAAEEV` ?
Reply | 5.89

Ask | Also, MPSFDIVSEVDLQEARNAVDNASREVESRFDFRNVEASFELNDASKTIKVLSESDFQVNQLLDILRAKLLKRGIEGSSLDVPENIVHSGKTWFVEAKLKQGIESATQKKIVKMIKDSKLKVQAQIQGDEIRVTGKSRDDLQAVMAMVRGGDLGQPFQFKNFRD [P0A8E7] please.
Reply | 4.32

----------
Test: total protein half-life in vivo (active degradation + dilution); higher = more stable protein
Conditions: wild type E. coli NCM3722; growth: N-lim chemostat; doubling time 6 h
REPORTED METRIC: total protein half-life in vivo (h)
Respond numerically; units are h and should not be typed.

Some entries whose results are on file:
>>> quantitative_readout("MTHDNKLQVEAIKRGTVIDHIPAQIGFKLLSLFKLTETDQRITIGLNLPSGEMGRKDLIKIENTFLSEDQVDQLALYAPQATVNRIDNYEVVGKSRPSLPERIDNVLVCPNSNCISHAEPVSSSFAVRKRANDIALKCKYCEKEFSHNVVLAN [P0A7F3]")
4.14
>>> quantitative_readout("MTTPTFDTIEAQASYGIGLQVGQQLSESGLEGLLPEALVAGIADALEGKHPAVPVDVVHRALREIHERADAVRRQRFQAMAAEGVKYLEENAKKEGVNSTESGLQFRVINQGEGAIPARTDRVRVHYTGKLIDGTVFDSSVARGEPAEFPVNGVIPGWIEALTLMPVGSKWELTIPQELAYGERGAGASIPPFSTLVFEVELLEIL [P0A9L3]")
3.59
>>> quantitative_readout("MILFVGFLLMEIVMPQISRTALVPYSAEQMYQLVNDVQSYPQFLPGCTGSRILESTPGQMTAAVDVSKAGISKTFTTRNQLTSNQSILMNLVDGPFKKLIGGWKFTPLSQEACRIEFHLDFEFTNKLIELAFGRVFKELAANMVQAFTVRAKEVYSAR [P0AGL5]")
0.714
>>> quantitative_readout("MIVLVTGATAGFGECITRRFIQQGHKVIATGRRQERLQELKDELGDNLYIAQLDVRNRAAIEEMLASLPAEWCNIDILVNNAGLALGMEPAHKASVEDWETMIDTNNKGLVYMTRAVLPGMVERNHGHIINIGSTAGSWPYAGGNVYGATKAFVRQFSLNLRTDLHGTAVRVTDIEPGLVGGTEFSNVRFKGDDGKAEKTYQNTVALTPEDVSEAVWWVSTLPAHVNINTLEMMPVTQSYAGLNVHRQ")
4.82
>>> quantitative_readout("MSLTRLLIRDFRNIETADLALSPGFNFLVGANGSGKTSVLEAIYTLGHGRAFRSLQIGRVIRHEQEAFVLHGRLQGEERETAIGLTKDKQGDSKVRIDGTDGHKVAELAHLMPMQLITPEGFTLLNGGPKYRRAFLDWGCFHNEPGFFTAWSNLKRLLKQRNAALRQVTRYEQLRPWDKELIPLAEQISTWRAEYSAGIAADMADTCKQFLPEFSLTFSFQRGWEKETEYAEVLERNFERDRQLTYTAHGPHKADLRIRADGAPVEDTLSRGQLKLLMCALRLAQGEFLTRESGRRCLYLIDDFASELDDERRGLLASRLKATQSQVFVSAISAEHVIDMSDENSKMFTVEKGKITD [P0A7H0]")
4.32
>>> quantitative_readout("MRHIFQRLLPRRLWLAGLPCLALLGCVQNHNKPAIDTPAEEKIPVYQLADYLSTECSDIWALQGKSTETNPLYWLRAMDCADRLMPAQSRQQARQYDDGSWQNTFKQGILLADAKITPYERRQLVARIEALSTEIPAQVRPLYQLWRDGQALQLQLAEERQRYSKLQQSSDSELDTLRQQHHVLQQQLELTTRKLENLTDIERQLSTRKPAGNFSPDTPHESEKPAPSTHEVTPDEP [P0AD44]")
6.28
>>> quantitative_readout("MTQPVLDIQQLHLSFPGFNGDVHALNNVSLQINRGEIVGLVGESGSGKSVTAMLIMRLLPTGSYCVHRGQISLLGEDVLNAREKQLRQWRGARVAMIFQEPMTALNPTRRIGLQMMDVIRHHQPISRREARAKAIDLLEEMQIPDAVEVMSRYPFELSGGMRQRVMIALAFSCEPQLIIADEPTTALDVTVQLQVLRLLKHKARASGTAVLFISHDMAVVSQLCDSVYVMYAGSVIESGVTADVIHHPRHPYTIGLLQCAPEHGVPRQLLPAIPGTVPNLTHLPDGCAFRDRCYAAGAQCENVPALTACGDNNQRCACWYPQQEVISV")
4.02
>>> quantitative_readout("MTKYALVGDVGGTNARLALCDIASGEISQAKTYSGLDYPSLEAVIRVYLEEHKVEVKDGCIAIACPITGDWVAMTNHTWAFSIAEMKKNLGFSHLEIINDFTAVSMAIPMLKKEHLIQFGGAEPVEGKPIAVYGAGTGLGVAHLVHVDKRWVSLPGEGGHVDFAPNSEEEAIILEILRAEIGHVSAERVLSGPGLVNLYRAIVKADNRLPENLKPKDITERALADSCTDCRRALSLFCVIMGRFGGNLALNLGTFGGVFIAGGIVPRFLEFFKASGFRAAFEDKGRFKEYVHDIPVYLIVHDNPGLLGSGAHLRQTLGHIL [P0A6V8]")
5
>>> quantitative_readout("MKIAILSRDGTLYSCKRLREAAIQRGHLVEILDPLSCYMNINPAASSIHYKGRKLPHFDAVIPRIGTAITFYGTAALRQFEMLGSYPLNESVAIARARDKLRSMQLLARQGIDLPVTGIAHSPDDTSDLIDMVGGAPLVVKLVEGTQGIGVVLAETRQAAESVIDAFRGLNAHILVQEYIKEAQGCDIRCLVVGDEVVAAIERRAKEGDFRSNLHRGGAASVASITPQEREIAIKAARTMALDVAGVDILRANRGPLVMEVNASPGLEGIEKTTGIDIAGKMIRWIERHATTEYCLKTGG [P0C0U4]")
3.77
>>> quantitative_readout("MSNWPYPRIVAHRGGGKLAPENTLASIDVGAKYGHKMIEFDAKLSKDGEIFLLHDDNLERTSNGWGVAGELNWQDLLRVDAGSWYSKMFKGEPLPLLSQVAERCREHGMMANIEIKPTTGTGPLTGKMVALAARELWAGMTPPLLSSFEIDALEAAQQAAPELPRGLLLDEWRDDWRELTARLGCVSIHLNHKLLNKARVMQLKDAGLRILVYTVNKPQRAAELLRWGVDCICTDAIDVIGPNFTAQ")
3.87

Ask | # total protein half-life in vivo lookup, item `MQTEHVILLNAQGVPTGTLEKYAAHTADTRLHLAFSSWLFNAKGQLLVTRRALSKKAWPGVWTNSVCGHPQLGESNEDAVIRRCRYELGVEITPPESIYPDFRYRATDPSGIVENEVCPVFAARTTSALQINDDEVMDYQWCDLADVLHGIDATPWAFSPWMVMQATNREARKRLSAFTQLK`
Reply | 4.39

Hello, the source for this data is the supplement of paper PMC11246515, in case you need it.
